Measured values drawn from PubChem BioAssay AID179 for this set.

System: CEM cells HIV-1 protection, formazan growth assay
experiment_summary: NCI AIDS Antiviral Assay;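 active means compounds giving half or more protection of infected cells from virus-caused growth loss, again on retest; inactive means the rest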
Hi there, use one of these labels in your reply, thanks! Yes for active, No for inactive

COC(=O)C(CC(=O)Nc1ccc(Cl)c(Cl)c1)C(=O)C(=O)Nc1ccc(Cl)c(Cl)c1 (stereo unspecified) : No
Nc1ncnc2c1ncn2C1CC(OCc2ccccc2[N+](=O)[O-])C(CO)O1 (stereo unspecified) : No
C=CCC1(O)CC(n2cc(C)c(=O)[nH]c2=O)OC1CO[Si](C)(C)C(C)(C)C (stereo unspecified) : No
C/C(=N/N)c1sc(-c2nc(C)c(/C(C)=N\N)s2)nc1C : No
CC(C)/C(Cl)=N\OC(=O)Nc1cccc(Cl)c1 : No

Now for a further compound.
### Prompt Answer briefly: the call reported for `Cn1cc(NC(=O)Nc2cc(C(=O)Nc3cc(C(=O)Nc4ccc(S(=O)(=O)O)c5cc(S(=O)(=O)O)ccc45)n(C)c3)n(C)c2)cc1C(=O)Nc1cc(C(=O)Nc2ccc(S(=O)(=O)O)c3cc(S(=O)(=O)O)ccc23)n(C)c1` in this assay.
### Response Yes
